B1: TPR t1 (parent)
chain: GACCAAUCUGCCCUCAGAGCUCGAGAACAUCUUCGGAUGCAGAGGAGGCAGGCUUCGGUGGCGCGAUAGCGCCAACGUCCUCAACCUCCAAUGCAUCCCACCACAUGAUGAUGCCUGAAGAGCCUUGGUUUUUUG

Variants of: B1
Assay: polymerase ribozyme fitness, log enrichment relative to wild type (log ratio); higher = more active; in vitro selection for triplet polymerase activity
So basically: polymerase ribozyme fitness (log ratio) at -3 or higher? That is class 1. Lower than -3? That is class 0.

GACCAAUCUGCCAUCAGAGCUCGAGAACAUCUUCGGAUGCAGAGAAGGCAGGCUUCGGUGGCGCGAUAGCGCCAACGUCCUCAACCUCCAAUGCAUCCCACCACAUGAUGAUUCCUCAAGAGCCUUGGUUUUUUG class 0
GACCAAUCUGACCUCAGAGCUCGAGAACAUCUUCGGAUGCAGAGUAGGCAGGCUUCGGUGGCGCGAUAGCACCAACGUCCUCAACCUCCAAUGCAUCCCACCACAUGAUGAUGCCUGAAGCGCCUUGGUUUAUUG class 1
GACCAAUCUGCUCUCAGAGCUCGAGAACAUCUUCGGAUGCAGAGGAGGCAGGCUUCGGUGGCGCGAUAGAGCCAACGUCCUCAACCUGCAAUGCAUCCCACCACAUGAUGAUGCCUGAAGAGCCUUGGCUUUUUG class 1
GACCAAUCUGCCCUAAGAGCUCGAGAACAUCUUCGGAUGCAGAGGAGGCAGGCUUCGGUGGCGCGAUAGCGCCAACGUCCUCAUCCUCCAAUGCAUCCCACCACAUGAUGAUGCCUGAAGAGCCUUGGUUUUUUG class 1
GACCAAUCUGCCCUCAGAGCUGGAGAACAUCUUCGGAUGCAGAGGAGGCAGGCUUCGGUGGCGCGAUAGCGACAACGUCCUCAACCUUCAAUGCAUCCCACCACAUGAUGAUGCCUGAAGAGCCUUGGUUUUUUG class 1
GACCAAUCUGCCCUUAGAGCUCGAGGACAUCUUCGGAUGCAGAGGAGGCAGGCUUCGGUGGCCCGAUAGCACCAACGUCCUCAACCUCCAAUGCAUCCCACUACAUGAGGAAGCCUGAAGAGCCUUGGAUUUUUG class 0
GACCAAUCGGCCCUCAGAGCUCGGGAACAUCUUCGGAUGCAGAGGAGGCAGGCUUCGGUGGCGCGAUAGCGCCAACGUCCUCAACCUCCAAUGCAUCCCACCACAUGAUGAUGCCUGAAGAGCCUUGGUUUUUUG class 1
GACCAAUCUGCCCUCAGAGCUCGACAACAUCUUCGGAUGCAGAGGAGGCAGGCUUCGGUGGCGCGAUAGCGCCAACGUCCUCAACCUCCAAUGCAUCCCACCACAUGAUGAUGCCUGAAGAGCCUUGGUUUUUUG class 0
GACCAAUCUGCCGUCAGAGCUCGAGAACAUCUUCGGAUGCCGAGGAGGCAGGCUUCGGUGGCGCGAUAGCGCCAACGUCCUCAACCUCCAAUGCAUCCCACCACAUGAUGAUGCCUGAAGAGCCUUGGUUUUUUG class 0
GACCAAUCUGCCCUCAGAGCUCGAGAACAUCUUCGGAUGCAGAGGAGGCAGGCUUCGGUGGCGCGAUAGCGCCAACGUCCUCAACCUCCAAUGCAUCCCACCAAAUGAUGAUGCCUGAAGAGCCUUGGUUUUUGG class 1
GACCAAUCUGCCCUCAUAGCACGAGAACAUCUUCGGAUGCAGAGGAGGCAGGCUUCGGUGGCGCGAUAGCGCCAACGUCCUCAACCUCCAAUGCAUCCCACCACAUGAUGAUGCCUGAAGAGCCUUGGUUUUUUG class 0
GACCAAUCUGCUCUCAGAGCUCGAGAACAUCUUCGGAUGCAGAGGAGGCAGGAUUCGCUGGCGCGAUAGCGCCAACGUCCUCAACCUCCAAUGCAUCCCACCACAUGAUGAUGCCUGAUGAGCCUUGGUUUUUUG class 1
GACCAAUCUGACCUCAGAGCUCGAGAACAUCUUCGGAUGCAGAGGAGGCAGGCUUUGGUGGCGCGAUAGCGCCAACGUCCUCAACCUCCAAUGCAUCCCACCACUUGAUGAUGCCUGAAGAGCCUUGGUUUUUUG class 0
GACCAAUCUGCCCUCAGAGCUCGAGAACAACUUCGGAUUCAGAGGAGGCAGGCUUCGGUGGCGCGAUAGCGCCAACGUCCUCAACCUCCAAUGCAUCCCAACACAUGAUGUUGCCUGAGGAGGCUUGGUUUUUUG class 0
GACCAAUCUGCCUUCAGAGCUCGAGAACAUCUUCGGAUGCAGAGGAGGCAGGCUUCGGUGGCGCGAUAGCGCCAACGUCCUCAACCUCCAAAGCAUCCCACCACAUGAUGAUGCCUGAAGAGCCUUGGUUUUUUG class 1
GACCAAUCUGCCCUCAGAGCUCGAGAACAUCUUCGGAGGCAGAGGAGGCAGGAUUCGGUGGCGCGAUAGCGCCAACGUCCCCAACCUCCAAUGCAUCCCAUCACAUGAUGAUGCCUGAAGAGCGUUGGUUUUUUG class 1
GACCAAUCUGCCCUCAGAACUCGAGAACAUCUUCGGAUGCAGAGGAGGCAGGCUUCGGUGGCGCGAUAGCGCCAACGUCCUCAACCGCCAAUGCAUCCCACCACCUGAUGCUGCCUGAAGAGCCUUGGUUUUUUG class 0
GACCAAUCUGCCCACAGAGCUCGAGAACAUCUUCGGAUGCAGAGGAGGCAGGCUUCGGUGGCGCGAUAGCGCCAACGUGCUCUACCUCCAAUGCAUCCCACCACAUGAUGAUGCCUGAAGAGCCUUGGUUUUUUG class 0
GACCAAUGUGCCCUCAGAGCUCGAGAACAUCUUCGGAUGCAGAGGAGGCAGGCUUCGGUGGCGCGAUAGCGCCAACGUCCUCAACCUCCAAUGCAUCCCUCCACAAGAUGAUGCCAGAAGAGCCUUGGUUUUUUG class 1
GACCAAUCUGCGCUCAGAGCUCGAGAACAUCUUCGCAUGCAGAGGAGGCAGGCUUCGGUGGCGCGUUAGCGCCAACGUCCUCAAUAUCCAAUGCAUCCCACCACAUGAUGAUGCCUGAAGAGCCUUGGUUUUUUG class 0
GACCAAUCUGCCCUCAGAGCUCGAGAACAUCUUCGGAUGCAGAGGAGGCAGGCUUCGGCGGCGCGAUAGCGCCAACGUCCUCCACCUCCAAUGCAUCCCAGCACAUGAUGAUGCUAGAAGAGCCUUGGUUUUUUG class 0
GACCAAUCUGCCUUCAGAGCUCGAGAACAUCUUCGGAUGCAUAGGAGGCAGGCUUUGGUGGCGCGAUAGCGCUAACGUCCUCAACCUCCAAUGCAUCCCACCACAUGAUGAUGGCUGAAGAGACUUGGUUUUUUG class 1
GACCAAUCUGCCCUCAGAGCUCGAGAGCCUCUUCGAAUGCAGAGGCGGCAGGCUUCGGUGGCGCGAUAGCGGCAACGUCCUCAACCUCCAAUGCAUCCCACCACACGAUGAGGCCAGAAGAGCCUUGGUUUUUUG class 0
GACCAAUCUGCCCUCAGAGCUCGAGAUCAUCUUCGGAUGCAGAGGAGGCAGGAUUAGGUGGCGCGAUAGCGCCAACGUCCUCAACCUCCAAUGCAUCCCACCACAUGAUGAUGCCUGAAGAGCCUUGGUUGUUUG class 1
GAGCAAUCUGCCCUCAGAGCUCGAGAACAUCUUCGGAUGCCGAGGAGGCAGGCUUCGGUGGCGCGAUAGCGCCAACGUCCUCAACCUCCAAUGCAUCCCACCACAUGAUGAUGCCUGAAGAGCCUUGGUUUUUUG class 0
GACCAAUCUGCCCUCAGAGCUCGAGAACAUCUUCGGAUGCAGAGAAGGCAGGCUUCGGUGGCGCGAUAGCGCCAACGUCCUCAACCUCCAAUGUAUCCCACCACAUGAUGAUGCCUGAACAGCCUUGGUUUUUUG class 1
GACCAAUCUGCCCUCAGAGCUCGAGAUCAUCUUCGGAUGCAGAGGAGGCAGGCCUCGGUGGCGCGAUAGCUCCAACGUCCUCAACCUCCAAUGCAUCACACCACAUGAUGAUGCCUGAAGAGCCUUGGUUUCUUG class 0
GACCAAUCUGCCCUCAGAGCUCGAGAACAUCUUCGGAUGCAGAGGAGGCAGGCUUCGGUGGCGCGAUAGCGCCAACCUCCUCAACCACCAAUCCAUCCCACCACUUGAUGAUGCAUGAAGAGCCUUGGUUUUUUG class 0
GACCAAUCUGCCCUCAGAGCUCGAGAACAUCUUCUGAUGCAGAGGAGGCAGGCUUCGGUGGCGCGAUAACGCCAACGUCCUCAACCUCCAAUGCAUCCCACCACCAGAUGAUGCCUGAAUAGCCUUGGUUUUUUG class 0

These measurements were taken from the RNAGym collection of RNA variant scans (doi:10.1073/pnas.2313332121).
